Sourced from ChEMBL document CHEMBL1147193

test system: NCI-H23; experiment: Growth inhibition of human NCI-H23 cells after 48 hrs by SRB protein assay; type: functional; conditions: NCI-H23, 48 h, read-out: Log TGI (converted)
Measurement kind: TGI (µM)

O=C(CC1Sc2ncnn2C1=O)Nc1ccc(Cl)cc1 (stereo not given) = 70.8
COc1ccc(NC(=O)CC2Sc3ncnn3C2=O)cc1 (stereo not given) = 37.2
O=c1/c(=C/c2ccc(Cl)cc2)sc2ncnn12 = 38
O=C(CC1Sc2ncnn2C1=O)Nc1ccccc1 (stereo not given) = 9.12
O=C(CC1Sc2ncnn2C1=O)Nc1ccc(Br)cc1 (stereo not given) = 43.7

====

test system: NCI-H460; experiment: Anticancer activity against human NCI-H460 cells assessed as growth of cells at 100 uM relative to untreated cells; type: functional
Measurement kind: Activity (%)

O=c1/c(=C/c2ccc(F)cc2)sc2ncnn12 = 13
O=C(CC1Sc2ncnn2C1=O)Nc1ccc(Cl)cc1 (stereo not drawn) = 0
O=C(CC1Sc2ncnn2C1=O)Nc1ccccc1 (stereo not drawn) = 0
CCOC(=O)c1ccc(NC(=O)CC2Sc3ncnn3C2=O)cc1 (stereo not drawn) = 0
O=c1/c(=C/C=C\c2ccccc2)sc2ncnn12 = 95
O=C(CC1Sc2ncnn2C1=O)Nc1ccc(Br)cc1 (stereo not drawn) = 0
O=c1/c(=C/c2ccc(Cl)cc2)sc2ncnn12 = 3
COc1ccc(NC(=O)CC2Sc3ncnn3C2=O)cc1 (stereo not drawn) = 0
